Measured values drawn from patent US11090304B2 for this set.

- System name: GDP-bound KRAS protein (aa 1-169), containing both G12C and C118A amino acid substitutions (Homo sapiens, UniProt P01116, C118A/G12C)
- Sequence (P01116 1-169 isoform P01116-2 G12C/C118A): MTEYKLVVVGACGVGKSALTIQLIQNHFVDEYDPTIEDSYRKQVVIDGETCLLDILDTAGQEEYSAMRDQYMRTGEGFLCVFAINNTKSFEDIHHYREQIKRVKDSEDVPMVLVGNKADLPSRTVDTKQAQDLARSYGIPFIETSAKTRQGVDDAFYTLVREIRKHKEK
- Experimental details: Coupled nucleotide exchange assay (SOS-mediated, AlphaScreen)
- Assay type: biochemical
- Experimental context: 5 min compound pre-incubation
Measure name: Coupled exchange IC50 (5 min)

Worked cases, Coupled exchange IC50 (5 min) given:
Compound	Coupled exchange IC50 (5 min)
C=CC(=O)N1CCN(c2nc(=O)n(-c3nccnc3C(C)C)c3nc(-c4ccccc4F)c(Cl)cc23)[C@@H](C)C1	2.26 | nda μM
C=CC(=O)N1CCN(c2nc(=O)n(-c3ccccc3C3(C(F)(F)F)CC3)c3nc(-c4c(O)cccc4F)c(F)cc23)[C@@H](C)C1 (single isomer, unassigned) [Example 59-1-2]	1.1 | nda μM
C=CC(=O)N1CCN(c2nc(=O)n(-c3c(C(C)C)ccnc3C)c3nc(-c4ccccc4F)c(Cl)cc23)[C@@H](C)C1 [Example 54-18]	0.087 | nda μM
C=CC(=O)N1CCN(c2nc(=O)n(-c3c(C(C)C)ccnc3C)c3nc(-c4ccccc4F)c(F)cc23)[C@@H](C)C1 (single isomer, unassigned) [Example 58-16-2]	0.315 | nda μM
C=CC(=O)N1CCN(c2nc(=O)n(-c3c(C)cccc3C(C)C)c3nc(-c4c(C)ccc5[nH]ncc45)c(F)cc23)[C@@H](C)C1 (single isomer, unassigned) [Example 68-2-2]	0.31 | nda μM

Next compound, Coupled exchange IC50 (5 min) to be filled in.
I would be grateful if you could share the reported Coupled exchange IC50 (5 min) for C=CC(=O)N1CCN(c2nc(C(N)=O)c(-c3ccccc3C(C)C)c3nc(-c4ccccc4F)c(Cl)cc23)CC1 .
13.6 | nda μM

====

- System name: GDP-bound KRAS protein (aa 1-169), containing both G12C and C118A amino acid substitutions (Homo sapiens, UniProt P01116, C118A/G12C)
- Experimental details: Coupled nucleotide exchange assay (SOS-mediated, AlphaScreen)
- Format: biochemical
- Experimental context: 5 min compound pre-incubation
Listing: Coupled exchange IC50 (5 min) of selected compounds

Worked cases, Coupled exchange IC50 (5 min) given:
Compound	Meas value
C=CC(=O)N1CCN(c2nc(=O)n(-c3ccccc3C(C)C)c3nc(-c4ccccc4F)c(C)cc23)[C@@H](C)C1 (single isomer, unassigned) [Example 74-1-2]	0.118 | nda μM
C=CC(=O)N1CCN(c2nc(=O)n(-c3c(C)cc(N(C)C)cc3C(C)C)c3nc(-c4ccccc4F)c(Cl)cc23)[C@@H](C)C1 (single isomer, unassigned) [Example 55-16-1]	1.05 | nda μM
C=CC(=O)N1CCN(c2nc(=O)n(-c3ccccc3C(C)C)c3cc(-c4ccccc4F)c(Cl)nc23)[C@@H](C)C1 (single isomer, unassigned) [Example 110-2]	0.071 | nda μM
C=CC(=O)N1CCN(c2nc(OC)c(-c3ccccc3C)c3nc(-c4ccccc4F)c(Cl)cc23)[C@@H](C)C1	1.95 | nda μM
C=CC(=O)N1CCN(c2nc(=O)n(-c3c(CC)cccc3CC)c3nc(-c4ccccc4F)c(Cl)cc23)[C@@H](C(=O)O)C1	4.85 | nda μM
C=CC(=O)N1CCN(c2nc(=O)n(-c3c(N)cccc3C(C)C)c3nc(-c4ccccc4F)c(Cl)cc23)[C@@H](C)C1 [Example 155]	0.108 | nda μM
C=CC(=O)N1CCN(c2nc(=O)n(-c3ccccc3N(C)C)c3nc(-c4c(O)cccc4F)c(Cl)cc23)[C@@H](C)C1	0.79 | nda μM
C=CC(=O)N1CCN(c2nc(=O)n(-c3c(C)ccnc3C(C)C)c3nc(-c4ccc(F)cc4F)c(F)cc23)[C@@H](C)C1 (single isomer, unassigned) [Example 58-10-2]	6.31 | nda μM
C=CC(=O)N1CCN(c2nc(=O)n(-c3c(F)cccc3F)c3nc(Cl)c(Cl)cc23)[C@@H](C)C1	46.1 | nda μM
C=CC(=O)N1CCN(c2nc(=O)n(-c3nccnc3C(C)C)c3nc(-c4c(O)cccc4F)c(Cl)cc23)[C@@H](C)C1	1.67 | nda μM

I would be grateful if you could share the reported Coupled exchange IC50 (5 min) for C=CC(=O)N1CCN(c2nc(=O)n(-c3c(C)cccc3C3CC3)c3nc(-c4c(O)cccc4F)c(F)cc23)[C@@H](C)C1 (single isomer, unassigned) [Example 58-13-2] .
0.26 | nda μM

I would be grateful if you could share the reported Coupled exchange IC50 (5 min) for C=CC(=O)NC1CN(c2nc(=O)n(-c3c(C)ccnc3C(C)C)c3nc(-c4c(O)cccc4F)c(F)cc23)C1 (single isomer, unassigned) .
85 | nda μM
